Target: human ether-à-go-go-related gene (hERG) potassium channel (human);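 also: peak tail current of the secondary pulse compared with the same well before compound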
Sequence (Q12809 whole entry, looked up): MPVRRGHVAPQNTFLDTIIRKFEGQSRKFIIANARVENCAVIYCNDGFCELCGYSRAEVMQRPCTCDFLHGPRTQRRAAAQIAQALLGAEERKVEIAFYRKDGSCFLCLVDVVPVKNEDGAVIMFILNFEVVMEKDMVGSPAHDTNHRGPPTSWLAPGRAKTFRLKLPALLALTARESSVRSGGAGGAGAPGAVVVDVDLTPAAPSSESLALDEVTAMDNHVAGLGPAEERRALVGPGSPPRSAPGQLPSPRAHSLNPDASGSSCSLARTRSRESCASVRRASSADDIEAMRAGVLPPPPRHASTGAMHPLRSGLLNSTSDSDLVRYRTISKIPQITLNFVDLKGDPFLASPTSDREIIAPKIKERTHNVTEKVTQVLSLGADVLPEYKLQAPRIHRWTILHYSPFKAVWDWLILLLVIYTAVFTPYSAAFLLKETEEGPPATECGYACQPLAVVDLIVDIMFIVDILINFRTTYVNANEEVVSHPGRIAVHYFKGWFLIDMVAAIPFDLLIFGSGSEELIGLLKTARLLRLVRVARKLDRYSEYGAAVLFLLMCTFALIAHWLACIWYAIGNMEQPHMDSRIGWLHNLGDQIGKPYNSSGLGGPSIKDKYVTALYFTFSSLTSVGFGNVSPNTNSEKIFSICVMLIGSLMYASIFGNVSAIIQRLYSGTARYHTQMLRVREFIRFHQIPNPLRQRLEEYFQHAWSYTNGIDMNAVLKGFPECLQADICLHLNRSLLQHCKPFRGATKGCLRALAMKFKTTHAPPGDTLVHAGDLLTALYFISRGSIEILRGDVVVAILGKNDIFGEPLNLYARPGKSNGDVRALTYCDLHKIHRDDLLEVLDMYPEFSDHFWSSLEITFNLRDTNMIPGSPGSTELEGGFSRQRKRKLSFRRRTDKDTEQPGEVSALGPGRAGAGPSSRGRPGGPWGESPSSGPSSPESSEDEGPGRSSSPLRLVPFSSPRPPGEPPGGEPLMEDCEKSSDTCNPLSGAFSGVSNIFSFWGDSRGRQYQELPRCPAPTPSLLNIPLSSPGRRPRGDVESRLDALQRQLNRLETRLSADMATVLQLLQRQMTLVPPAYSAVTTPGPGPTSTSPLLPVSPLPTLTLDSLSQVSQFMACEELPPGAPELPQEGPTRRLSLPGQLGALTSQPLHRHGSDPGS
Test: primary screen, population patch clamp on CHO cells stably expressing hERG; higher = less effect of the substance
Screen size: about 310,000 compounds; about 14,000 (4.5%) showed an effect of 50% or more. Effects have a minus sign here. The list comes from a sample in which strong results are over-represented; it also holds close analogues and randomly drawn compounds.
observedProperty: hERG current change (%, negative = inhibition) at 10uM (%)

{"compound": "CCOC(=O)c1oc2ccccc2c1NC(=O)c1ccc(S(=O)(=O)N(C)C)cc1", "dataValue": 13}
{"compound": "COc1cc2c(cc1NC(=O)c1cccc([N+](=O)[O-])c1)oc1ccccc12", "dataValue": 1.9}
{"compound": "COc1ccc(S(=O)(=O)N2CCC(C(=O)NCC3CCCO3)CC2)cc1C (stereo not shown)", "dataValue": 9.95}
{"compound": "Cc1ncc(CO)c(/C=N/Nc2cccc(Cl)n2)c1O.Cl", "dataValue": 8.89}
{"compound": "CC(=O)Cn1nnc(-c2ccc(C(F)(F)F)cc2)n1", "dataValue": 6.1}
{"compound": "COc1ccc(CNC2CCCCC2C)c(OC)c1 (stereo not shown)", "dataValue": -56.9}
{"compound": "CCC(CC)C(=O)Nc1c(C(=O)N2CCN(c3ccccc3)CC2)oc2ccccc12", "dataValue": 3.17}
{"compound": "COc1ccc(CC(=O)NC2CCCCCC2)c(OC)c1", "dataValue": -3.09}
{"compound": "COc1cc(NC(=O)c2cc([N+](=O)[O-])ccc2NC(=O)CNC2CCCCC2C)cc(OC)c1 (stereo not shown)", "dataValue": 20.3}
{"compound": "O=C(OCc1cc(=O)oc2cc(O)ccc12)c1cc(S(=O)(=O)N2CCOCC2)ccc1F", "dataValue": 5.32}
